Where do the numbers come from? From patent US20250034594A1.

tested on: gene editing with Cas9; assay: Screen of 322 new SSAP proteins, gene editing activity with Cas9 (Table 5); assay type: cell-based; conditions: normalized
Quantity measured: Cas9 with SSAP activity (normalized)

Exercise: Retrieve Cas9 with SSAP activity (normalized) measured for SSAP_99: SEQ ID NO: 268; Pseudomonas stutzeri (protein, listed as Pseudomonas stutzeri) STENVAPFSQKDMQQATGQQVKPRSPADSLAAMLASPKMKAQFAAALPKHMTAERMARIVTTEIRKTPALVKCDQHSFLGSVIQCAQLGLEPGNSLGHAYLLPYGNQVQLIIGYRGMIDLARRSGQIVSLSARTVREHDEFDYQLGLHEDLTHKPFEGEHAGEITHVYAVARLQGGGVQFEVMSKAQVEAVRAQSKAGKSGPWVSHWEEMAKKTVIRRLFKYLPVSVEIQRAVTLDEAAEAGLPQGNEYVFDGDFEVVNDASGAQQ and print it.
Key: −0.873
